Literature compilation of IC50 measurements on Ubiquitin carboxyl-terminal hydrolase 7 (Homo sapiens, UniProt Q93009).

Reading of IC50 for `C=CC(=O)N[C@@H](Cc1ccccc1)C(=O)N1CCC(O)(Cn2cnc3cc(Cl)ccc3c2=O)CC1` with Ubiquitin carboxyl-terminal hydrolase 7 (Homo sapiens, UniProt Q93009): > 10000 nM

Reading of IC50 for Cc1cc(Cl)cc(-c2ncnc3cc(CN4C(=O)C5CC5C4=O)sc23)c1CC1OCCNC1(C)C (centres unmarked) with Ubiquitin carboxyl-terminal hydrolase 7 (Homo sapiens, UniProt Q93009): 10 to 100 nM

Reading of IC50 for Cc1cc(Cl)cc(-c2ncnc3cc(CN4C(=O)C5CC5C4=O)sc23)c1CC1CNCC2(CCC2)O1 (centres unmarked) with Ubiquitin carboxyl-terminal hydrolase 7 (Homo sapiens, UniProt Q93009): < 10 nM

Reading of IC50 for CC(C(=O)N1CCC(O)(Cn2cnc3cc(Cl)ccc3c2=O)CC1)C(C)c1ccccc1 (centres unmarked) with Ubiquitin carboxyl-terminal hydrolase 7 (Homo sapiens, UniProt Q93009): 1000 to 10000 nM

Reading of IC50 for `O=C(CCl)NCCC(=O)N1CCC(O)(Cn2cnc3cc(Cl)ccc3c2=O)CC1` with Ubiquitin carboxyl-terminal hydrolase 7 (Homo sapiens, UniProt Q93009): > 10000 nM

Reading of IC50 for Cc1c(-c2cc(Cl)cc3c2OC(C(=O)N2CCNCC2)C3)ccnc1N (centres unmarked) with Ubiquitin carboxyl-terminal hydrolase 7 (Homo sapiens, UniProt Q93009): 1000 to 10000 nM

Reading of IC50 for Clc1cc2c(c(-c3ccnc4[nH]ccc34)c1)OC(c1onc3c1CCNC3)C2 (centres unmarked) with Ubiquitin carboxyl-terminal hydrolase 7 (Homo sapiens, UniProt Q93009): 1000 to 10000 nM

Reading of IC50 for `O=c1ccn(CC(F)(F)F)c(=O)n1Cc1cc2nccc(-c3cc(Cl)cc4c3N([C@H]3CCNC3)C[C@H]3C[C@@H]43)c2s1` with Ubiquitin carboxyl-terminal hydrolase 7 (Homo sapiens, UniProt Q93009): < 10 nM
